Ref: patent US20190225669A1

Biological target: T1, ALK3-Fc homodimer (UniProt P36894 24-152)
T1 construct: extracellular domain
T1 sequence (P36894 24-152): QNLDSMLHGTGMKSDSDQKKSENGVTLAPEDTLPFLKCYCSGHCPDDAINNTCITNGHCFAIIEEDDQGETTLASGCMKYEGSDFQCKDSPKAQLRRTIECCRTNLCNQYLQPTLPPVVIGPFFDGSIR
Test: Biacore SPR
property: binding result

Completed entries (count: 5):
BMP10 (ligand, UniProt O95393 317-424, looked up) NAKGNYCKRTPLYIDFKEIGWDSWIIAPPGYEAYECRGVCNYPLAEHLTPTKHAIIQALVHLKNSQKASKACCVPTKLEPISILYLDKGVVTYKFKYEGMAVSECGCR ... no binding
BMP9 (ligand, UniProt Q9UK05 320-429, looked up, also called GDF2) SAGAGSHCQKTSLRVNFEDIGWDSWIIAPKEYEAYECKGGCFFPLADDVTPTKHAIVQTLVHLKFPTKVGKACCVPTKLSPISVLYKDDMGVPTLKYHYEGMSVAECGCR ... no binding
GDF11 (ligand, UniProt O95390 299-407, looked up, also called BMP11) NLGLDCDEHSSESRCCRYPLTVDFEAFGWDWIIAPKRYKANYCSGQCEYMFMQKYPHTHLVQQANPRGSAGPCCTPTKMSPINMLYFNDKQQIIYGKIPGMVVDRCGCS ... no binding
GDF3 (ligand, UniProt Q9NR23 251-364, looked up) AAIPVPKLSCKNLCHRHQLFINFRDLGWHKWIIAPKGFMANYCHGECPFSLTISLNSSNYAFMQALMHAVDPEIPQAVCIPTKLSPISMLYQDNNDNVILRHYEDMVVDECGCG ... no binding
activin B (ligand, UniProt P09529 293-407, looked up) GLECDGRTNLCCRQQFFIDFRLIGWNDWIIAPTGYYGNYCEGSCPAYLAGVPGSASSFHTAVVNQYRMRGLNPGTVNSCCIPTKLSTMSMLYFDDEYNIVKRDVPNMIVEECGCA ... no binding

For activin A (ligand, UniProt P08476 311-426, looked up) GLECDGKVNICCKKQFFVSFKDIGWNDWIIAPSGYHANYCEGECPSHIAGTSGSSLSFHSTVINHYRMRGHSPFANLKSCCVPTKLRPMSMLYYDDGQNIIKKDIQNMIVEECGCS , what is its reported binding result?
no binding
